- Tested on: Human Jurkat-E6-1 cells
- procedureDetails: Measurement of IL-2 secretion of Jurkat cells by ELISA
- Assay type: cell-based
- measurementContext: Homo sapiens, Jurkat E6.1; test compound 3.0 μM; anti-CD3/anti-CD28 stimulation 24 hours; read-out: Percentage of the amount of IL-2 secreted from compound treated/DMSO-treated cells
Where a name gives a salt, the structure may show the parent alone.
measurementLabel: activity at 3 µM (%)
Answer in %, number only, no unit symbol.

Some solved cases for reference:
| compound | activity at 3 µM (%) |
| --- | --- |
| Cc1cccc(F)c1-n1nc2c(-c3ccc(N4CC5CCC(C4)N5C)cc3)n[nH]c2cc1=O | 635 |
| Cc1cccc(F)c1-n1nc2c(-c3ccc4c(c3)CN(C3CNC3)CC4)n[nH]c2cc1=O [Compound 164, hydrochloride] | 159 |

Now turn to the next compound.
The compound `Cc1cccc(F)c1-n1nc2c(-c3ccc(N4CC5CCC(C4)N5CCO)cc3)n[nH]c2cc1=O` , tested on Human Jurkat-E6-1 cells, showed activity at 3 µM of 566

* * *

- measurementTarget: UniProt:Q92918
- procedureDetails: HPK1 kinase activity inhibition test (ADP-Glo, luminescence)
- Type: biochemical
- measurementContext: HPK1 5 nM, ATP 2 μM, read-out: IC50, inhibitory effects of compounds on HPK1 kinase activity
pIC50: −log10 of the molar value.
Each entry below carries its recorded pIC50.

Some solved cases for reference:
| smi | result |
| --- | --- |
| CCc1cccc(F)c1-n1nc2c(-c3cccc(N4CCN(C)CC4)c3)n[nH]c2cc1=O | ≥ 7.30 |
| COc1cccc(F)c1-n1nc2c(-c3ccc(N4CCC(C)(OC)CC4)cc3)n[nH]c2cc1=O | ≥ 7.30 |
| Cc1cccc(F)c1-n1nc2c(-c3ccc4c(c3)CN(C(=O)CN3CCOCC3)CC4)n[nH]c2cc1=O | 6.30 to 7.30 |

# pIC50 (compound: `CC(=O)N1CCN(c2ccc(-c3n[nH]c4cc(=O)n(-c5c(C)cccc5F)nc34)cn2)CC1` ) is 6.30 to 7.30

# pIC50 (compound: `Cc1cccc(F)c1-n1nc2c(-c3ccc(N4CCN(CCO)CC4)nc3)n[nH]c2cc1=O` ) is ≥ 7.30

# pIC50 (compound: `COc1cc(F)cc(F)c1-n1nc2c(-c3ccc(N4CCN(C)CC4)cc3)n[nH]c2cc1=O` ) is ≥ 7.30

# pIC50 (compound: `Cc1cccc(F)c1-n1nc2c(-c3ccc(N4CCN(C)CC4)cc3)n[nH]c2cc1=O` ) is ≥ 7.30

# pIC50 (compound: `Cc1cccc(F)c1-n1nc2c(-c3cccc(N4CC5CCC(C4)N5C)c3)n[nH]c2cc1=O` ) is ≥ 7.30

* * *

pIC50: −log10 of the molar value.
The reader will find pIC50 measurements below, all made with HPK1 (Homo sapiens (Human)).

| molecule | measurementTarget | pIC50 |
| --- | --- | --- |
| COc1cccc(F)c1-n1nc2c(-c3ccc(N4CCN(C)C(C(C)(C)OC)C4)cc3)n[nH]c2cc1=O (stereo not shown) [Compound 127] | HPK1 (Homo sapiens (Human)) | ≥ 7.30 |
| Cc1cc(C#N)cc(F)c1-n1nc2c(-c3ccc(N4CCN(C(=O)[C@H](C)N)CC4)cc3)n[nH]c2cc1=O [Compound 82] | HPK1 (Homo sapiens (Human)) | ≥ 7.30 |
| COc1ccc(-n2nc3c(-c4ccc(C5=CCN(C)CC5)cc4)n[nH]c3cc2=O)c(OC)c1 [Compound 4] | HPK1 (Homo sapiens (Human)) | ≥ 7.30 |

# pIC50 (molecule: CCc1cccc(F)c1-n1nc2c(-c3ccc4c(c3)CN(C)CC4)n[nH]c2cc1=O [Compound 160] ) is ≥ 7.30

# pIC50 (molecule: COc1cccc(F)c1-n1nc2c(-c3ccc4c(c3F)CN(C)CC4)n[nH]c2cc1=O [Compound 190] ) is 6.30 to 7.30

# pIC50 (molecule: Cc1cccc(F)c1-n1nc2c(-c3ccc(N4CC5CCC(C4)N5C)nc3)n[nH]c2cc1=O [Compound 109] ) is ≥ 7.30

# pIC50 (molecule: Cc1cc(C#N)cc(F)c1-n1nc2c(-c3ccc(N4CCN(C)CC4)nc3)n[nH]c2cc1=O [Compound 99] ) is 6.30 to 7.30

* * *

- measurementTarget: HPK1 (Homo sapiens (Human))
pIC50: −log10 of the molar value.
measurementLabel: pIC50

| compound | measurementLabel | result |
| --- | --- | --- |
| [2H]C([2H])([2H])N1CCN(c2ccc(-c3n[nH]c4cc(=O)n(-c5c(C)cccc5F)nc34)cc2)CC1 [Compound 81] | pIC50 | ≥ 7.30 |
| COc1ccncc1-n1nc2c(-c3ccc(-c4cnn(C)c4)cc3)n[nH]c2cc1=O [Compound 152] | pIC50 | 6.30 to 7.30 |
| COc1cccc(F)c1-n1nc2c(-c3ccc(C4=CCN(C)CC4)cc3)n[nH]c2cc1=O [Compound 23] | pIC50 | ≥ 7.30 |

The compound COc1cccc(F)c1-n1nc2c(-c3ccc(N4CCN(C)CC4)nc3)n[nH]c2cc1=O [Compound 10] , tested on HPK1 (Homo sapiens (Human)), showed pIC50 of ≥ 7.30

The compound CCc1cccc(F)c1-n1nc2c(-c3ccc(N4CCN(C)CC4)cc3)n[nH]c2cc1=O [Compound 8] , tested on HPK1 (Homo sapiens (Human)), showed pIC50 of ≥ 7.30

The compound COc1ccncc1-n1nc2c(-c3ccc(C4=CCN(C)CC4)cc3)n[nH]c2cc1=O [Compound 151] , tested on HPK1 (Homo sapiens (Human)), showed pIC50 of 6.30 to 7.30

The compound COc1cccc(F)c1-n1nc2c(-c3ccc(N4CCN(C)C(=O)C4)cc3)n[nH]c2cc1=O [Compound 33] , tested on HPK1 (Homo sapiens (Human)), showed pIC50 of ≥ 7.30

The compound Cc1cccc(F)c1-n1nc2c(-c3cc(N4CCN(C)CC4)ccc3F)n[nH]c2cc1=O [Compound 208] , tested on HPK1 (Homo sapiens (Human)), showed pIC50 of ≥ 7.30

The compound COc1cccc(F)c1-n1nc2c(-c3cccc(N4CCN(C)CC4)c3F)n[nH]c2cc1=O [Compound 209] , tested on HPK1 (Homo sapiens (Human)), showed pIC50 of 6.30 to 7.30

The compound Cc1cccc(F)c1-n1nc2c(-c3ccc4c(c3)CN(C)[C@H](CO)C4)n[nH]c2cc1=O [Compound 176] , tested on HPK1 (Homo sapiens (Human)), showed pIC50 of ≥ 7.30

The compound COc1cccc(F)c1-n1nc2c(-c3ccc(N4CCN(C)C(C(C)(C)O)C4)cc3)n[nH]c2cc1=O (stereo not shown) [Compound 126] , tested on HPK1 (Homo sapiens (Human)), showed pIC50 of ≥ 7.30

The compound Cc1cccc(F)c1-n1nc2c(-c3ccc(N4CC5CCC(C4)N5CCO)cc3)n[nH]c2cc1=O [Compound 117] , tested on HPK1 (Homo sapiens (Human)), showed pIC50 of ≥ 7.30

The compound Cc1cccc(F)c1-n1nc2c(-c3ccc(N4CC5CCC(C4)N5C)cc3)n[nH]c2cc1=O [Compound 61] , tested on HPK1 (Homo sapiens (Human)), showed pIC50 of ≥ 7.30

The compound COc1cc(C#N)cc(F)c1-n1nc2c(-c3ccc(N4CCN(C5COC5)CC4)cc3)n[nH]c2cc1=O [Compound 86] , tested on HPK1 (Homo sapiens (Human)), showed pIC50 of ≥ 7.30

The compound Cc1cccc(F)c1-n1nc2c(-c3ccc(N4CCn5ccnc5C4)cc3)n[nH]c2cc1=O [Compound 137] , tested on HPK1 (Homo sapiens (Human)), showed pIC50 of ≥ 7.30

The compound Cc1cccc(F)c1-n1nc2c(-c3ccc(N4CCN(C)CC4)c(F)c3)n[nH]c2cc1=O [Compound 94] , tested on HPK1 (Homo sapiens (Human)), showed pIC50 of ≥ 7.30

The compound Cc1cc(Cl)cc(F)c1-n1nc2c(-c3ccc(N4CCN(C)CC4)nc3)n[nH]c2cc1=O [Compound 108] , tested on HPK1 (Homo sapiens (Human)), showed pIC50 of 6.30 to 7.30

The compound COc1cccc(F)c1-n1nc2c(-c3ccc(N4CCOCC4)cc3)n[nH]c2cc1=O [Compound 92] , tested on HPK1 (Homo sapiens (Human)), showed pIC50 of ≥ 7.30

The compound COc1cccc(F)c1-n1nc2c(-c3cccc(N4CCCC(N)C4)c3)n[nH]c2cc1=O (stereo not shown) [Compound 204] , tested on HPK1 (Homo sapiens (Human)), showed pIC50 of ≥ 7.30

* * *

- measurementTarget: HPK1 (Homo sapiens (Human), UniProt Q92918)
- Sequence (Q92918 whole entry): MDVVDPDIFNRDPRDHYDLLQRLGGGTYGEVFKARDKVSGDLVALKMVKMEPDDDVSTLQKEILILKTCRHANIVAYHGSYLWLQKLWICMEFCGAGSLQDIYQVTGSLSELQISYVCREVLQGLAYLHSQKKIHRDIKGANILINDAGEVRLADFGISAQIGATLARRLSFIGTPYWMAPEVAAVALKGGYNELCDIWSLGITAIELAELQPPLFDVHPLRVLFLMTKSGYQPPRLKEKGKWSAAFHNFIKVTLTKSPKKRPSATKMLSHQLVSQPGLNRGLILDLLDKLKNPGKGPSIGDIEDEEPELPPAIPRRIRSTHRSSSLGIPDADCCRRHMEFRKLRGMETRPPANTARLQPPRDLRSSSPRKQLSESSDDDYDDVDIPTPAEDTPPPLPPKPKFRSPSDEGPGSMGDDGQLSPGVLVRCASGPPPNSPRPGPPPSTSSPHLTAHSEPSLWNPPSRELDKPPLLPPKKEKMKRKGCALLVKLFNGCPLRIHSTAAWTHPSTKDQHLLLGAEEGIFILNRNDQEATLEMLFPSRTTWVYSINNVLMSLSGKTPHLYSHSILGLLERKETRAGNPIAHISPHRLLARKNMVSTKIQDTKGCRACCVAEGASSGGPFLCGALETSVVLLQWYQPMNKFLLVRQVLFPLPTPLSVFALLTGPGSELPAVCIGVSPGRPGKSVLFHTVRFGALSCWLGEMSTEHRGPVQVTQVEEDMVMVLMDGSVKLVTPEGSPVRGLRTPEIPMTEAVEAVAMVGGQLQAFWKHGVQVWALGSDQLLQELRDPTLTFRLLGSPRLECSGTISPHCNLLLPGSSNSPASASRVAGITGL
pIC50: −log10 of the molar value. Where a name gives a salt, the structure may show the parent alone.
measurementLabel: pIC50

Some solved cases for reference:
| compound | result |
| --- | --- |
| COc1cc(-c2n[nH]c3cc(=O)n(-c4c(C)cccc4F)nc23)ccc1N1CCN(C)CC1 [Compound 14] | 6.30 to 7.30 |
| COc1cccc(F)c1-n1nc2c(-c3cnc(N4CCN(C)CC4)nc3)n[nH]c2cc1=O [Compound 28] | ≥ 7.30 |
| COc1cccc(F)c1-n1nc2c(-c3cnn(C)c3)n[nH]c2cc1=O [Compound 21] | 6.30 to 7.30 |

The compound CN1CCN(c2ccc(-c3n[nH]c4cc(=O)n(-c5c(O)cccc5F)nc34)cn2)CC1 [Compound 100, hydrobromide] , tested on HPK1 (Homo sapiens (Human), UniProt Q92918), showed pIC50 of 6.30 to 7.30
